experiment summary: BET inhibitor-based combinations targeting novel dependencies in MECOM-rearranged (r) AML: MV-4-11 cell line (AID 2202233); also: nearly all actives have a fitted effect of over 45% in size
condition parameters: MV-4-11 AML viability, CellTiter-Glo luminescence, 48 h; series mostly up to 46 µM
Inconclusive results are not listed. Calls of active or inactive are those of the source. Calls follow the shape of the dose curve; as a rule, active = well fitted inhibition curve with a large enough effect; inconclusive = small, poorly fitted or top-dose-only effect; inactive = no such curve, though single readings can be large or run the other way.
Lab note: assign the record to one of active, inactive

Exam item: Write down the call the test reported for this molecule. Item: O=C1NC(=O)[C@@H](c2c[nH]c3ccccc23)[C@H]1c1cn2c3c(cccc13)CCC2
Marked response: active

Exam item: Write down the call the test reported for this molecule. Item: O=c1cc(-c2ccc(O)c(O)c2)oc2cc(O)cc(O)c12
Marked response: active

Exam item: Write down the call the test reported for this molecule. Item: COCCNCCCn1c(C(=O)CF)c(-c2ccc(C)cc2)c2c(N)ncnc21
Marked response: active

Exam item: Write down the call the test reported for this molecule. Item: CN1CC[C@@H](c2c(O)cc(O)c3c(=O)cc(-c4ccc(C(F)(F)F)cc4Cl)oc23)[C@@H]1CO
Marked response: active

Exam item: Write down the call the test reported for this molecule. Item: CC(C)(NS(=O)(=O)c1ccc2c(Cl)cnc(N=C(N)N)c2c1)C(=O)O
Marked response: inactive

Exam item: Write down the call the test reported for this molecule. Item: N#Cc1ccnc(N2C(=O)CC[C@H]2C(=O)N(c2cncc(F)c2)C(C(=O)NC2CC(F)(F)C2)c2ccccc2Cl)c1 (some centres not stated)
Marked response: inactive

Exam item: Write down the call the test reported for this molecule. Item: Cn1c(=O)c2c(ncn2CC2OCCO2)n(C)c1=O
Marked response: inactive

Exam item: Write down the call the test reported for this molecule. Item: O=C1S/C(=C\c2ccc(OCc3cccc(B(O)O)c3)cc2)C(=O)N1Cc1ccc(F)cc1
Marked response: active

Exam item: Write down the call the test reported for this molecule. Item: COc1ccc2c(c1OC)C(=O)OC2[C@H]1c2c(cc3c(c2OC)OCO3)CCN1C (some centres not stated)
Marked response: active

Exam item: Write down the call the test reported for this molecule. Item: c1ccc(Cn2c(-c3ccc(OCC(C4CCNCC4)n4c(-c5ccccc5)nc5ccccc54)cc3)nc3ccccc32)cc1 (configuration not stated)
Marked response: active

Exam item: Write down the call the test reported for this molecule. Item: O=C(Nc1ncc(SCCN2CCCC2)s1)[C@]1(c2ccc(S(=O)(=O)C3CC3)cc2)C[C@H]1C1CCCCC1
Marked response: active

Exam item: Write down the call the test reported for this molecule. Item: C[C@]12CCC3[C@@H](CC[C@H]4NC(=O)C=C[C@]34C)[C@@H]1CC[C@@H]2C(=O)Nc1cc(C(F)(F)F)ccc1C(F)(F)F (some centres not stated)
Marked response: inactive

Exam item: Write down the call the test reported for this molecule. Item: CO[C@H]1/C=C/O[C@@]2(C)Oc3c(C)c(O)c4c(O)c(c5c(nc6cc(C)ccn65)c4c3C2=O)NC(=O)/C(C)=C\C=C\[C@H](C)[C@H](O)[C@@H](C)[C@@H](O)[C@@H](C)[C@H](OC(C)=O)[C@@H]1C
Marked response: inactive

Exam item: Write down the call the test reported for this molecule. Item: COc1cc(OCc2cccc(-c3ccccc3)c2C)cc(OC)c1CN1CCCC[C@H]1C(=O)O
Marked response: active

Exam item: Write down the call the test reported for this molecule. Item: COc1cc(C)c(/C=C/C(C)=C/C=C/C(C)=C/C(=O)O)c(C)c1C
Marked response: active

Exam item: Write down the call the test reported for this molecule. Item: Cc1c(-c2cnccn2)ssc1=S
Marked response: active

Exam item: Write down the call the test reported for this molecule. Item: CCCc1cc(C(=O)N[C@H](Cc2ccc(-c3cccc(OC(F)(F)F)c3)nc2)C(=O)N[C@@H]2CCNC2)sc1C
Marked response: active

Every entry's value here was drawn from PubChem BioAssay (NCATS).
